Experimental System: T1, ARHGEF11, O15085
T1 sequence (O15085 42-136, limits assumed, looked up): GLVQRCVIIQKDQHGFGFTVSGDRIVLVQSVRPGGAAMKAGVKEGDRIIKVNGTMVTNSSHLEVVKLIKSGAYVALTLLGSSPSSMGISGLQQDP
Assay Explanation: holdup assay
Parameters: key: below the threshold = too weak to quantify, mostly under pKd 3.1 to 4
Assay Setup: plain residues with an end cap or a label only (N-terminal biotin on a linker: ado-ado)
Measured Property: pKd

Value of pKd reported for the binder TRKRSGEAAV [PFKM, P08237] is below the threshold

Value of pKd reported for the binder AEASVACSLC [PTGIR, P43119] is below the threshold

Value of pKd reported for the binder QLSFNTDTLC [ABCA2, Q9BZC7] is below the threshold

Ref: paper PMC9482650
